assayed.target: Muscarinic acetylcholine receptor M1 (Homo sapiens)
protocol.summary: Cholinergic receptor muscarinic 1 (CHRM1) small molecule antagonists, cell-based qHTS assay (AID 1963588); note: nearly all actives have a fitted effect of over 40% in size
measurement.setup: CHRM1-CHO antagonist mode, calcium flux fluorescence; series mostly up to 61.5 µM
Results filed as inconclusive are left out. Active and inactive are the calls of the source. Calls come from the whole dose curve.
Permitted responses: t for active, f for inactive

INSERT INTO results (compound, assayed_target, category) VALUES
  ('CC1=CC(=O)CC(C)(C)C1(O)/C=C/C(C)=C\C(=O)O (stereo not drawn)', 'Muscarinic acetylcholine receptor M1 (Homo sapiens)', 'f');

Next, consider the following compound.
Given CCC1NC(=O)c2cc(S(N)(=O)=O)c(Cl)cc2N1 (stereo not drawn) , state the outcome it received in this test.
f

###

protocol.summary: cAMP Responsive Elements (CRE) small molecule antagonists, cell-based qHTS assay (AID 1963591)
measurement.setup: CRE-bla HEK293T, beta-lactamase FRET ratio; series mostly up to 92.4 µM
Records with an inconclusive call do not appear. Calls of active or inactive are those of the source. Calls follow the shape of the dose curve; as a rule, active = well fitted inhibition curve with a large enough effect in the signal ratio in the repeat runs (not every such curve was filed as active); inconclusive = weak or mixed curves, or effect the other way; inactive = flat fitted curve, though single readings scatter; the % refers to the signal ratio.
recorded.metric: activity change, negative = inhibition

Check out these entries, answers already filled in.
INSERT INTO assay_data (molecule, reading) VALUES
  ('COc1ccc(CN(CCN(C)C)c2ncccn2)cc1', 'inactive'),
  ('Cc1c[nH]c2ccccc12', 'inactive'),
  ('C=CC(C)C#N (stereo not drawn)', 'inactive'),
  ('[Cu+]', 'inactive'),
  ('C=COCC1CCC(COC=C)CC1 (stereo not drawn)', 'inactive');

Annotate the molecule C=Cc1ccccc1 with its measured activity change, negative = inhibition.
inactive

Annotate the molecule NS(=O)(=O)c1cc2c(cc1C(F)(F)F)NCNS2(=O)=O with its measured activity change, negative = inhibition.
inactive

###

protocol.summary: p53 small molecule agonists, cell-based qHTS assay with human liver microsomes: qHTS cell viability counter screen (AID 1963579); note: potency is the fitted concentration of half-maximal effect; nearly all actives have a fitted effect of over 45% in size
measurement.setup: p53RE-bla HCT-116 viability, ATP luminescence, 16 h, HLM; series mostly up to 66 µM
Records with an inconclusive call do not appear. The source made the active and inactive calls. Calls come from the whole dose curve.
recorded.metric: Potency

Check out these entries, answers already filled in.
INSERT INTO results (compound, reading) VALUES
  ('Cc1cc(O)c(C(C)(C)C)cc1C(C)(C)C', '18.2 µM (active)'),
  ('Cc1ccc(C=O)s1', '40.8 µM (active)'),
  ('Nc1ccccc1O', '28.5 µM (active)');

Here's the next entry for you.
Annotate the compound CCCCCCCC[P+](CCCCCCCC)(CCCCCCCC)CCCCCCCC with its measured Potency.
8.09 µM (active)

###

protocol.summary: cAMP Responsive Elements (CRE) small molecule antagonists, cell-based qHTS assay (AID 1963591)
measurement.setup: CRE-bla HEK293T, beta-lactamase FRET ratio; series mostly up to 92.4 µM
Results filed as inconclusive are left out. The source made the active and inactive calls. The call rests on the fitted dose curve; in most records, active means well fitted inhibition curve with a large enough effect in the signal ratio in the repeat runs (not every such curve was filed as active); inconclusive means weak or mixed curves, or effect the other way; inactive means flat fitted curve, though single readings scatter; the % refers to the signal ratio.
recorded.metric: activity change, negative = inhibition

Check out these entries, answers already filled in.
INSERT INTO measurements (compound, recorded_metric, reading) VALUES
  ('COc1cc2c(cc1OC)-c1cc3ccc(OC)c(OC)c3c[n+]1CC2', 'activity change, negative = inhibition', 'inactive'),
  ('Cc1cccc(C(=O)O)c1[N+](=O)[O-]', 'activity change, negative = inhibition', 'inactive'),
  ('Nc1ccc2cc(S(=O)(=O)O)ccc2c1', 'activity change, negative = inhibition', 'inactive'),
  ('CC(C)CCCC(C)(C)O', 'activity change, negative = inhibition', 'inactive'),
  ('O=C(Nc1ccccc1)c1ccccc1O', 'activity change, negative = inhibition', 'inactive'),
  ('CN(C)CCCOC1(Cc2ccccc2)CCCCCC1', 'activity change, negative = inhibition', 'inactive');

Annotate the compound COc1ccc(C(=O)N2CCN(CC(=O)N3CCOCC3)CC2)cc1 with its measured activity change, negative = inhibition.
inactive

Annotate the compound CCC(C)(CCCC(C)C)OC(C)=O (centres undefined) with its measured activity change, negative = inhibition.
inactive

Annotate the compound c1ccc(-c2nn[nH]n2)cc1 with its measured activity change, negative = inhibition.
inactive
